Target: T1, Human IL2Rγ extracellular domain expressed with a C-terminal mouse IgG2a Fc tag (human)
T1 construct: whole entry is the Fc-fused construct; also called hIL-2Rg-mFc
T1 chain: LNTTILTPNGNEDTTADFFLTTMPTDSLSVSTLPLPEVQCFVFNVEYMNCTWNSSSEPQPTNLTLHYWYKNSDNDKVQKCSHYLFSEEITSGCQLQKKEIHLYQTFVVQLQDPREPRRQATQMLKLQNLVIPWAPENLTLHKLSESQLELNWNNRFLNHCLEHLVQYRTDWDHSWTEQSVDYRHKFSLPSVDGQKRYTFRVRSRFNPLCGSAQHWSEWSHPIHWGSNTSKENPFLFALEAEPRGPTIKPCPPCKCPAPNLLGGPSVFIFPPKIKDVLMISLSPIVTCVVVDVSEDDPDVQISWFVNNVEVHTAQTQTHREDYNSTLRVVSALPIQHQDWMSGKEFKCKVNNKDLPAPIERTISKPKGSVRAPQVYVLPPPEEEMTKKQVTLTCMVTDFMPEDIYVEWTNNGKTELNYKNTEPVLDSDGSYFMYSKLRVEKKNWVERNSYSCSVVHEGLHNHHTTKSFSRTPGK
Test: SPR Biacore 4000, anti-hFc-captured mAb, 25 C
Endpoint: t1/2 (h)
Please state the figure in h; there is no need to write the unit.

Solved entries (count: 2):
>  <Binder>
H4H12863P (antibody, human IgG4 S228P, kappa, V domains shown, fully human anti-IL2Rgamma mAb, human IgG4 Fc) VH: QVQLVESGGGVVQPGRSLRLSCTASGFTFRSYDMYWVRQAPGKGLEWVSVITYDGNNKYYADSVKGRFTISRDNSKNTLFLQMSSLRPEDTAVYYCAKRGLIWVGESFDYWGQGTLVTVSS VL: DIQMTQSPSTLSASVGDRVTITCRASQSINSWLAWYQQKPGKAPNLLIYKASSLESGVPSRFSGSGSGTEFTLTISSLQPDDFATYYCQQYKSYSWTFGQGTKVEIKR

>  <t1/2 / h>
5.65

$$$$
>  <Binder>
H4H13538P (antibody, human IgG4 S228P, kappa, V domains shown, fully human anti-IL2Rgamma mAb, human IgG4 Fc) VH: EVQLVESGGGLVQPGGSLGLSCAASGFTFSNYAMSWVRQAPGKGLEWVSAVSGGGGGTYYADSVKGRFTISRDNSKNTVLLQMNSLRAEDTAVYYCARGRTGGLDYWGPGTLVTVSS VL: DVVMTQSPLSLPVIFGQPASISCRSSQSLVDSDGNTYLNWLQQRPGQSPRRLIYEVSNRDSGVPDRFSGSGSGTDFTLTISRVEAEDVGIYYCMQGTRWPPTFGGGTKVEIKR

>  <t1/2 / h>
1.65

$$$$

Ask | Need t1/2 of H4H13541P (antibody, human IgG4 S228P, kappa, V domains shown, fully human anti-IL2Rgamma mAb, human IgG4 Fc) VH: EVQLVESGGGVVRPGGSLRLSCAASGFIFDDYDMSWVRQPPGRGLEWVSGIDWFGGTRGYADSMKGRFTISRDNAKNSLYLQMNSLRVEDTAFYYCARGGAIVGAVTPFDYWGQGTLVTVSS VL: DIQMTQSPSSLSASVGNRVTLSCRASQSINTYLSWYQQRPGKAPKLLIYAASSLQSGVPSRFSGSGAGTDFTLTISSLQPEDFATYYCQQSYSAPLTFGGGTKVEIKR , thanks.
Reply | 2.18

Ask | Then this binder: H4H12871P (antibody, human IgG4 S228P, kappa, V domains shown, fully human anti-IL2Rgamma mAb, human IgG4 Fc; also called REGN9434) VH: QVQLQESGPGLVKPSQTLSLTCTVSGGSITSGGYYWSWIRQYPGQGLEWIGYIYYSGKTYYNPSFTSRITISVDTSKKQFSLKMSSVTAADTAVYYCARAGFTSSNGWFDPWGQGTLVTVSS VL: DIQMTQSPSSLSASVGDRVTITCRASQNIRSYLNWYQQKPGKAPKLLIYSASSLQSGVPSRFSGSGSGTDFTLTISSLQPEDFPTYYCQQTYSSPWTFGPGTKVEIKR
Reply | 3.68

Ask | Next: H4H12886P (antibody, human IgG4 S228P, kappa, V domains shown, fully human anti-IL2Rgamma mAb, human IgG4 Fc) VH: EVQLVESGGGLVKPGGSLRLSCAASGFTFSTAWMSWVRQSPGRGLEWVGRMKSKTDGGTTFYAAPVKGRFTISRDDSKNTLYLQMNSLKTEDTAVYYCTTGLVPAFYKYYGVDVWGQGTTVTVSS VL: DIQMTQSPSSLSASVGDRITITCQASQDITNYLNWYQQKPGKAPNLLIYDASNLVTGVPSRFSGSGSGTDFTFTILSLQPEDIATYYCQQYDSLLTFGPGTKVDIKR
Reply | 2.87

Ask | For H4H12884P (antibody, human IgG4 S228P, kappa, V domains shown, fully human anti-IL2Rgamma mAb, human IgG4 Fc) VH: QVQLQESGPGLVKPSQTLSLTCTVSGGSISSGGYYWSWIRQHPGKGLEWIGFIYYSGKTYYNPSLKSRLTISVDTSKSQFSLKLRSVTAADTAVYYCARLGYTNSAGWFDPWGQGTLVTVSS VL: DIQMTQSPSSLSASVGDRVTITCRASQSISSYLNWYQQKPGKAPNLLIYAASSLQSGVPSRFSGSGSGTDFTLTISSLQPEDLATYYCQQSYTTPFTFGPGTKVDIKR then?
Reply | 4.78
